Measured % inhibition ApPOL 90' of individual entries
# system_tested: P. falciparum apicoplast DNA polymerase (Pf-apPOL) (Plasmodium falciparum)
# experimental_protocol: Fluorescence-based high-throughput DNA polymerase assay (molecular beacon), primary screen and dose-response
# Assay type: biochemical
# condition_info: DRC-2; 90'; concentration 80
Hi! Could you send only the number? It should be in %, unit omitted.

// solved cases for % inhibition ApPOL 90' follow
molecule: CN(C)S(=O)(=O)Oc1ccc(-c2noc(-c3ccc(Oc4cc(Cl)cc(Cl)c4)o3)n2)cc1 [KU0263859]
unit_tag: %
% inhibition ApPOL 90': 73
--
molecule: COc1ccc(C)cc1NC(=O)Cn1ccc2c(=O)[nH]ccc21 [Molecule 15, COc1ccc(cc1NC(=O)Cn1ccc2c1cc[nH]c2=O)C]
unit_tag: %
% inhibition ApPOL 90': 55
--
molecule: COc1ccc(NC(=O)Cn2ccc3c(=O)[nH]ccc32)cc1 [Molecule 13, COc1ccc(cc1)NC(=O)Cn1ccc2c1cc[nH]c2=O]
unit_tag: %
% inhibition ApPOL 90': 70
--
molecule: O=C1c2ccccc2C(=O)N1Oc1ccc([N+](=O)[O-])c([N+](=O)[O-])c1 [Molecule 66]
unit_tag: %
% inhibition ApPOL 90': 66
--
molecule: COc1cc(Cl)c(C)cc1NC(=O)Cn1ccc2c(=O)[nH]ccc21 [Molecule 33]
unit_tag: %
% inhibition ApPOL 90': 63
--
molecule: CCC(C)NC(=O)c1cc(NC(C)=O)cc2nc(C)ccc12 (centres unmarked) [KU0206314]
unit_tag: %
% inhibition ApPOL 90': 73
--
molecule: Cc1cc(C)c2c(O)nc(SCC(=O)c3ccc(O)c(O)c3)nc2n1 [Molecule 88]
unit_tag: %
% inhibition ApPOL 90': 56

Consider the record given below.
Query for P. falciparum apicoplast DNA polymerase (Pf-apPOL) (Plasmodium falciparum): what % inhibition ApPOL 90' does the record show for COc1ccc(C(=O)N2CCc3c(nc4cc(-c5ccccc5Cl)[nH]n4c3=O)C2)cn1 [Molecule 26] ?
63

* * *

Measured % inhibition Apo pol 10' of individual entries
# system_tested: P. falciparum apicoplast DNA polymerase (Pf-apPOL) (Plasmodium falciparum)
# experimental_protocol: Fluorescence-based high-throughput DNA polymerase assay (molecular beacon), primary screen and dose-response
# Format: biochemical
# condition_info: DRC-1; concentration 5; 10'
Hi! Could you send only the number? It should be in %, unit omitted.

// solved cases for % inhibition Apo pol 10' follow
compound: O=C(Cn1ccc2c(=O)[nH]ccc21)Nc1ccccc1Cl [Molecule 19, O=C(Cn1ccc2c1cc[nH]c2=O)Nc1ccccc1Cl]
unit_tag: %
% inhibition Apo pol 10': 18.9507

compound: O=[N+]([O-])c1ccc(SCc2ccco2)c2cccnc12 [KU0034480]
unit_tag: %
% inhibition Apo pol 10': 32.9023

compound: O=C1c2ccccc2C(=O)c2c1oc1c3c(ccc21)OCN(C1CCCC1)C3 [KU0064306]
unit_tag: %
% inhibition Apo pol 10': 20.6805

Consider the record given below.
I am curious: what % inhibition Apo pol 10' value has been reported for CCOc1ccc2cc(C3=NN(C(=O)CCC(=O)O)C(c4ccc(C)cc4)C3)c(=O)[nH]c2c1 (stereo not shown) [KU0056200] ?
6.049

* * *

# system_tested: P. falciparum apicoplast DNA polymerase (Pf-apPOL) (Plasmodium falciparum)
# experimental_protocol: Fluorescence-based high-throughput DNA polymerase assay (molecular beacon), primary screen and dose-response
# Format: biochemical
# condition_info: DRC-2; 180'; concentration 20
Measured % inhibition apPOL 180' of individual entries
Hi! Could you send only the number? It should be in %, unit omitted.

// solved cases for % inhibition apPOL 180' follow
smiles_code: Nc1c(S(=O)(=O)O)cc(Nc2ccccc2)c2c1C(=O)c1ccccc1C2=O
% inhibition apPOL 180', %: 75
--
smiles_code: COc1ccc(-c2cc(=O)c3cc(O)ccc3o2)cc1OC
% inhibition apPOL 180', %: 34
--
smiles_code: NS(=O)(=O)c1ccc(NC(=O)c2ccc(N3C(=O)CCC3=O)cc2)cc1
% inhibition apPOL 180', %: 26

I am curious: what % inhibition apPOL 180' value has been reported for Cc1nc(C)c2c(n1)N(CC1CCCCC1)C(=O)CC2 ?
38

Now the same for Cc1nn(CC(=O)NCCSCc2ccco2)c(C)c1Br
7.41

Now the same for Cc1ccc(CCNC(=O)c2cnn3c(O)c(Cc4ccccc4F)c(C)nc23)cc1
43

Now the same for O=C(CCc1csc(NC(=O)Nc2ccccc2)n1)Nc1nc2ccccc2s1
37

Now the same for COc1cc(Cl)c(C)cc1NC(=O)Cn1ccc2c(=O)[nH]ccc21
56

Now the same for COc1cccc(C(=O)N2CCc3c(nc4cc(-c5ccccc5)[nH]n4c3=O)C2)c1OC
53

* * *

# system_tested: P. falciparum apicoplast DNA polymerase (Pf-apPOL) (Plasmodium falciparum)
# experimental_protocol: Fluorescence-based high-throughput DNA polymerase assay (molecular beacon), primary screen and dose-response
# Type: biochemical
# condition_info: DRC-2; 5'; concentration 20
Please mark TRUE if the recorded % inhibition Apo pol 5' is equal to or greater than 30%, and FALSE if it falls below.

Below are worked cases with known answers.
molecule: CC(C)(C)OC(=O)COc1ccc2cc(-c3ccccc3)c(=O)oc2c1 [Molecule 81]
system_tested: P. falciparum apicoplast DNA polymerase (Pf-apPOL) (Plasmodium falciparum)
category: FALSE

molecule: CCCCC(=O)N1CCc2c(nc3cc(-c4ccccc4Cl)[nH]n3c2=O)C1 [Molecule 37]
system_tested: P. falciparum apicoplast DNA polymerase (Pf-apPOL) (Plasmodium falciparum)
category: TRUE

molecule: COc1ccc(-c2cc3nc4c(c(=O)n3[nH]2)CCN(C(=O)CCc2ccccc2)C4)cc1 [Molecule 17]
system_tested: P. falciparum apicoplast DNA polymerase (Pf-apPOL) (Plasmodium falciparum)
category: TRUE

molecule: C=CC1=C(C)c2cc3[nH]c(cc4nc(cc5[nH]c(cc1n2)c(C)c5CCC(=O)O)C(CCC(=O)O)=C4C)c(C)c3C=C [Molecule 91]
system_tested: P. falciparum apicoplast DNA polymerase (Pf-apPOL) (Plasmodium falciparum)
category: TRUE

molecule: Cc1nc(/N=N/c2ccc(C(=O)[O-])cc2)c(COP(=O)([O-])[O-])c(C=O)c1O.[Na+].[Na+].[Na+] [KU0261395]
system_tested: P. falciparum apicoplast DNA polymerase (Pf-apPOL) (Plasmodium falciparum)
category: TRUE

Is % inhibition Apo pol 5' at least 30%? Consider OC(C#Cc1ccccc1)c1ccco1 (centres unmarked) [Molecule 95, OC(c1ccco1)C#Cc1ccccc1]
TRUE

Now the same for O=c1cc(-c2ccccc2)oc2c(O)c(O)ccc12 [Molecule 84, Oc1ccc2c(c1O)oc(cc2=O)c1ccccc1]
TRUE

Now the same for O=C(CSc1nc2ccccc2s1)Nc1ncc([N+](=O)[O-])s1 [KU0019667]
FALSE

* * *

# system_tested: P. falciparum apicoplast DNA polymerase (Pf-apPOL) (Plasmodium falciparum, UniProt Q8ILY1)
# Sequence (Q8ILY1 entry or part of it): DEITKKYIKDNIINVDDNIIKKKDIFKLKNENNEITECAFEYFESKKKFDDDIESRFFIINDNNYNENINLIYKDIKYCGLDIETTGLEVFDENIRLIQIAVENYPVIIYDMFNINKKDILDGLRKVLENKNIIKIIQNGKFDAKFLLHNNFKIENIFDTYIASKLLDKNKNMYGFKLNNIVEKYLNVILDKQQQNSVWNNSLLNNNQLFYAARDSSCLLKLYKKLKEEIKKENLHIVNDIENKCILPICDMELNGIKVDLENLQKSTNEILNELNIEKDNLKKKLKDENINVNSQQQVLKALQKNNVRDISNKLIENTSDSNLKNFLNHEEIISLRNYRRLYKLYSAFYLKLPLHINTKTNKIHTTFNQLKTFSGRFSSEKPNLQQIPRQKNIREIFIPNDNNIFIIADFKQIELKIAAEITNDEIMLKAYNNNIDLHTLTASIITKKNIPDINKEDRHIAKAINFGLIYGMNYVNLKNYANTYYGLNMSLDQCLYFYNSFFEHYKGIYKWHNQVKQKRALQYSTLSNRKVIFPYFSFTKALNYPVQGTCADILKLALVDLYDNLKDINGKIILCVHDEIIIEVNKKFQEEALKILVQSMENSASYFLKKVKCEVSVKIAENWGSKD
# experimental_protocol: Fluorescence-based high-throughput DNA polymerase assay (molecular beacon), primary screen and dose-response;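 as to % inhibition ApPOL 90': test concentration in µM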
# Assay type: biochemical
# condition_info: DRC-2; 90'; conc 2.5
Please mark fulfilled if the recorded % inhibition ApPOL 90' is equal to or greater than 10%, and not fulfilled if it falls below.

compound: O=C(O)c1ccc(COc2cc([N+](=O)[O-])cc3cccnc23)cc1
category: not fulfilled
--
compound: Cc1cccc(C2=N/C(=C\c3ccc([N+](=O)[O-])o3)C(=O)O2)c1
category: not fulfilled
--
compound: N#CC(C#N)=C1SCN(c2cccc(Cl)c2)CS1
category: fulfilled

Now look at this entry.
Is % inhibition ApPOL 90' at least 10%? Consider Cc1cc(C)c2c(c1)C1C=CCC1C(c1ccc(C(=O)O)cc1)N2 (stereo not shown)
fulfilled

* * *

# system_tested: UniProtKB Q8ILY1
# experimental_protocol: Fluorescence-based high-throughput DNA polymerase assay (molecular beacon), primary screen and dose-response
# Assay type: biochemical
# condition_info: DRC-1; read at 10'; concentration 2.5
Measured % inhibition Apo pol 10' 2.5 of individual entries
Hi! Could you send only the number? It should be in %, unit omitted.

molecule: O=C(CCc1csc(NC(=O)Nc2ccccc2)n1)Nc1nc2ccccc2s1
system_tested: UniProtKB Q8ILY1
measured_number: 5.576

molecule: Cc1ccsc1Cn1c(C)ccc1C
system_tested: UniProtKB Q8ILY1
measured_number: 0.1737

molecule: CC(=O)OCC1=C(C(=O)[O-])N2C(=O)[C@@H](NC(=O)Cc3cccs3)[C@H]2SC1.[Na+]
system_tested: UniProtKB Q8ILY1
measured_number: 15.9246

I am curious: what % inhibition Apo pol 10' 2.5 value has been reported for Cc1cc2[nH]c(C(=O)Nc3ccc(F)cc3)c(CN3CCOCC3)c2s1 ?
-2.4883

Now the same for CCCc1ccc(Oc2coc3cc(OC)ccc3c2=O)cc1
7.919

Now the same for N#Cc1c(O)nc(N2CCCCC2)nc1-c1ccc2c(c1)OCO2
13.1271

Now the same for Cn1nc(-c2nnc(-c3ccccc3F)o2)c2c1CCN(C(=O)c1ccccc1Cl)C2
33

Now the same for Cn1nc(-c2nc(-c3ccccc3)no2)c2c1CCN(C(=O)Cc1cccs1)C2
10

Now the same for Nc1cc(Oc2ccc(O)c(N)c2)ccc1O
19.846

Now the same for COc1ccccc1CC(=O)N1CCc2c(nc3cc(-c4ccccc4Cl)[nH]n3c2=O)C1
7.56

Now the same for C#CC(C=CC)OC(=O)c1ccccc1C(=O)O (centres unmarked)
8.856

Now the same for CC(=O)Nc1cc(C(=O)c2cccs2)nn(-c2ccc(Cl)cc2)c1=O
-1.115

Now the same for O=C1CSC2=NC3=C(CCc4ccccc43)C(c3cccs3)N12 (centres unmarked)
4.043

Now the same for COc1ccc(/C=C/c2cc(C(=O)O)c3ccccc3n2)cc1
43.4862

Now the same for CC(C)CC(C(=O)O)N1C(=O)C2C3C=CC(C2C1=O)C1C(=O)N(C(CC(C)C)C(=O)O)C(=O)C31 (centres unmarked)
0

Now the same for O=C(c1ccccc1)N1CCc2c(nc3cc(-c4ccccc4)[nH]n3c2=O)C1
12.9086

Now the same for Cc1ccc(N2CCC(NC(=O)Cc3cccs3)C2=O)cc1C (centres unmarked)
-4.081
